# Assay System: T1, CD27 expressed on the cell surface (HT1080_CD27 cells) (human, UniProt P26842 20-260); also: test concentration or dose not given here
# T1 sequence (looked up): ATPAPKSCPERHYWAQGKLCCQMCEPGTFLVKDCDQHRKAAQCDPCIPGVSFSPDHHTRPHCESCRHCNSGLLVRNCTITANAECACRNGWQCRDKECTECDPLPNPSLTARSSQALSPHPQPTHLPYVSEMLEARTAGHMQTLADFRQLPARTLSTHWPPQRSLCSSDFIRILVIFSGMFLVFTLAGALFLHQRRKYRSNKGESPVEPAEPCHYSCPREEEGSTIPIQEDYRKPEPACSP
# Method Description: cell-based or functional assay
# IL-8, cross-linked by F(ab')2 fragment [abs. corr.] per entry
Assay Endpoint: IL-8, cross-linked by F(ab')2 fragment [abs. corr.] (abs. corr.)

[[record]]
binder = "P018.S.03.A.H03 (antibody, V domains shown, V regions on human Ig constant parts; also called AB27_61) VH: QSLEESGGDLVKPEGSLTLTCTASGLDFSSSYWICWVRQAPGKGLEWIACIHAGSSGTTHYATWAKGRFTISKTSSTTVTLQMTSLTAADTATYFCARGAVYGGGSYDNFNLWGPGTLVTVSS VL: AYDMTQTPASVEVAVGGTVTIKCQASQSIGTYLSWYQQKPGQPPKLLIYAASTLASGVQPRFKGSGSGTQFTLTISGVQSDDAATYYCQQGYSADNVANSFGGGTEVVVK"
value_measured = 1.09

[[record]]
binder = "P018.S.03.A.C04 (antibody, V domains shown, V regions on human Ig constant parts; also called AB27_45) VH: QSVEESGGRLVTPGTPLTLTCTVSGVDLSRYAMSWVRQAPGEGLEWIGTIWYSGTTYYASWAKGRFTISKTSSTTVDLKMTSLTAADTATYFCARDPLYVGGNSGSDLWGPGTLVTVSS VL: DVVMTQTPASVSAAVGGTVTINCQASQSIGSSLAWYQQKPGQRPKLLIYYASTLASGVPSRFSGSGSGTEFTLTISDLESADAATYYCQSNYGAASSSYGAFGGGTEVVVK"
value_measured = 1.48

[[record]]
binder = "P018.S.04.A.G04 (antibody, V domains shown, V regions on human Ig constant parts; also called AB27_78) VH: QSLEESGGRLVTPGTPLTLTCTASGFTISSHHVTWVRQAPGEGLEWIGVIYPSGTTYYASWAKGRFTISRTSTTVDLKMTSLTIEDTATYFCVRDVGYFTLWGQGTLVTVSS VL: AQVLTQTPSPVSAAVGGTVTISCQSSQSVGGNNWLAWYQQKLGQPPKLLIYYASTLASGVPPRFSGSGSGTQFTLTISEVQSDDSATYYCQGYYSDVTNAFGGGTEVVVK"
value_measured = 1.57

